Would you mind telling me the reported GI50 of each entry?
tested on: SN12C; test: NCI tumour cell line growth inhibition, 48 h
Active and inactive are the calls of the source. Rule as the data show it: active = GI50 up to about 1.1 µM and inactive = higher.

CCc1cccc(C(C)C)c1NC(=O)C(=O)C1C(=O)Nc2ccccc2[S+]1[O-] (configuration not stated)
> 100 µM (inactive)

Kindly give each listed record's GI50.
1. FC(F)(F)c1nc(-c2ccccc2)oc1Sc1oc(-c2ccccc2)nc1C(F)(F)F
2. CCCC(=O)OCC1OC(n2ccc(N)nc2=O)C(OC(=O)CCC)C1OC(=O)CCC (configuration not stated)
3. CC(=O)Nc1ccc(C(=O)NN2C(=O)C(Cl)C2c2cc(Br)ccc2O)cc1 (configuration not stated)
4. CC(=O)OC12C3C4C1C1C2C3C41OC(C)=O (configuration not stated)
5. C/C(=N\NC(=S)Nc1ccc([N+](=O)[O-])cc1S(=O)(=O)O)c1ccccn1

> 100 µM (inactive)
16.5 µM (inactive)
8.71 µM (inactive)
> 100 µM (inactive)
59 µM (inactive)

----------
The following molecules have recorded GI50 on HCT-15.

COC(=O)[C@@H]1CN(C(=O)CCc2ccccc2)C(=O)N1C(=O)OCc1ccccc1
> 100 µM
N#Cc1ccc(C(=O)/C=C/c2ccc(O)c(O)c2)cc1
15.5 µM

I have 8 molecules here; please give me GI50 for each one.
1. C[C@@H]1OC2(O)[C@@H]3CCCN3C(=O)N(Cc3ccccc3)N2C1=O (stereo not given in full)
2. O=C1/C(=C\c2ccc([N+](=O)[O-])cc2)Sc2scc(-c3ccc(O)c(O)c3)[n+]21
3. CSC1=C(SC)SC(=C2SC3=C(SC(=C4SCCS4)S3)S2)S1
4. Cc1cc(S(=O)(=O)Nc2nc(N)nc(N(C)C)n2)c(SCC(=O)O)cc1Cl
5. O=Cc1c2n(c3ccccc13)N[C@@](Cc1ccc(O)cc1)(C(=O)O)C2
6. CN1CCN(Cc2ccc(C(=S)Nc3ccccc3)s2)CC1
7. CN1C/C(=C\c2ccc(C(=O)O)cc2)C(=O)/C(=C/c2ccc(C(=O)O)cc2)C1
8. CC[C@@H](C)[C@H](NC(=O)[C@H](Cc1ccccc1)NCC(F)(F)F)C(=O)OC(C)(C)C

1. > 100 µM
2. 2.33 µM
3. > 100 µM
4. > 10 µM
5. 47.3 µM
6. 21 µM
7. > 100 µM
8. > 100 µM

# batch: return GI50 for each of the 6 molecules below
1. CC(=O)OC1[C@H]2c3cc4c(cc3CN3CCC(C[C@@H]1OC(C)=O)C23)OCO4 (stereo not given in full)
2. CC1(C)OC(=O)C(C#N)=C1/C=C/c1coc2ccc(Cl)cc2c1=O
3. C/C=C1/CC(C)C(C)(O)C(=O)OCC2C(O)CN3CCC(OC1=O)C23 (stereo not given)
4. N#Cc1c(O)nc2nn3c4ccc5ccccc5c4nnc3c2c1-c1ccc(Cl)cc1
5. CN1CCN(CCCN2c3ccccc3Sc3ccc(C(F)(F)F)cc32)CC1
6. CC(C)Cc1cccc(C(C)C)c1NC(=O)CCC(=O)N/N=C1\C(=N/NC(=O)CCC(=O)Nc2c(C(C)C)cccc2C(C)C)C(c2ccc3c(c2)OCO3)Oc2ccccc21 (stereo not given)

1. > 75 µM
2. 27.4 µM
3. > 100 µM
4. 1.89 µM
5. 4.33 µM
6. 17.1 µM

Would you mind giving GI50 for every molecule in the list below?
1. CCCCCCCC1(c2ccc(N)cc2)CCC(=O)NC1=O (stereo not given)
2. O=C(O)C(Cl)(Cl)Cl
3. Cc1ccc2c(c1)C=CC1(O2)N(c2ccccc2)C(=S)OC1(C)C (stereo not given)
4. c1ccc(N2CCN(CCN3CCc4c([nH]c5ccccc45)C3c3cccnc3)CC2)cc1 (stereo not given)

1. 36.8 µM
2. > 100 µM
3. 46.2 µM
4. > 100 µM

----------
tested on: OVCAR-5; test: NCI tumour cell line growth inhibition, 48 h
Activity calls are given as the source filed them. No stated cut-off is given here; in the data, active = GI50 up to about 1.1 µM and inactive = higher.
readout.label: GI50

Cc1ccc(S(=O)(=O)N/C(=C\C=C\c2ccccc2)C(=O)C(C)(C)C)cc1
> 100 µM (inactive)
CCCCCC/C=C/C#CCCCCCCCC(=O)O
> 100 µM (inactive)
CCCCCCCC1(c2ccc(N)cc2)CCC(=O)NC1=O (stereo not given)
31.6 µM (inactive)
CCOC(=O)/C=C/n1c2ccccc2c(=O)c2cc(OC)ccc21
> 100 µM (inactive)
COc1ccc2c(c1)CCCC(Br)C2=O (stereo not given)
5.92 µM (inactive)
O=C(N/N=C\c1ccc2ccccc2c1)Nc1ccc([N+](=O)[O-])cc1
22.5 µM (inactive)
CO/C=C(/C(=O)OC)c1ccccc1Oc1c(F)c(F)c(F)c(F)c1F
> 100 µM (inactive)
C=C(C)C1CC2=C(C(=O)OC)C=C(O2)C(C(=C)C)[C@@H]2OC(=O)/C(=C\C1O)[C@H]2N(C)C (stereo not given in full)
16.5 µM (inactive)
C=C1[C@@H]([C@@]2(C)C=CC(=O)C(C)(C)[C@@H]2CC(=O)OC)CC[C@@]2(C)[C@H](c3ccoc3)OC(=O)[C@H]3O[C@]132
> 100 µM (inactive)

Query compound follows.
Let me know recorded GI50 for O=C(CC(Cl)=C(Cl)Cl)c1ccccc1 , thanks. 46 µM (inactive)

----------
test system: PC-3; test: NCI tumour cell line growth inhibition, 48 h
Activity calls are given as the source filed them. Rule as the data show it: active = GI50 up to about 1.1 µM and inactive = higher.
// allowed return values: 1 (yes) for active, 0 (no) for inactive

Some solved cases for reference:
O=C(/C=C/c1ccc2c(c1)OCO2)c1ccc(O)cc1
0 (no)
N#CC(N)c1ccc(OCCCCCCCCCCOc2ccc(C(N)C#N)cc2)cc1 (stereo unspecified)
0 (no)
O=C(O)Cc1cccc2c1OC(c1ccccc1)C(Cl)(C(=O)c1ccccc1)C2=O (stereo unspecified)
0 (no)
CC(N)(/C=C/c1ccccc1)C(=O)O (stereo unspecified)
0 (no)
Nc1ccccc1.O=P(O)(O)c1ccccc1
0 (no)

Continue with the compound presented below.
Please let me know the test result on file for C[C@@H]1CCC2[C@@H](C)[C@H](O[C@H]3O[C@@H]4O[C@@]5(C)CCC6[C@H](C)CCC([C@H]3C)[C@]64OO5)O[C@@H]3O[C@@]4(C)CCC1[C@@]23OO4 (stereo partly specified) . 1 (yes)

----------
system: RXF 393; assay: NCI tumour cell line growth inhibition, 48 h
Calls of active or inactive are those of the source. Rule as the data show it: active = GI50 up to about 1.1 µM and inactive = higher.
Give your call using only these classes: y (active), n (inactive)

Here's what some known entries look like.
COC(=O)[C@@H]1CN(C(=O)CCc2ccccc2)C(=O)N1C(=O)OCc1ccccc1
n
N#Cc1nn(C2OC(COC(=O)c3ccccc3)C(OC(=O)c3ccccc3)C2OC(=O)c2ccccc2)c2nc[nH]c(=O)c12 (centres undefined)
n
CC(C)[Si](Oc1ccc(CC2N(C(=O)c3ccc([N+](=O)[O-])cc3)C(CCc3ccccc3)CC2(C)C=O)cc1)(C(C)C)C(C)C (centres undefined)
n

# input for lookup
Field: outcome | Entry: O=C1c2cccnc2C(=O)c2c1nc1ccccc1c2-c1ccc2c3c(nc4ccccc42)C(=O)c2cccnc2-c13 y

----------
tested on: HCT-116; test: NCI tumour cell line growth inhibition, 48 h
Active and inactive are the calls of the source. Cut-off read from the data, not from the text of the source: active = GI50 up to about 1.1 µM and inactive = higher.
Pick one and only one: 1.0 (active), 0.0 (inactive)

O=C1c2ccc(O)cc2OC(c2cc(O)c(O)c(O)c2)C1O (stereo not given) [DIHYDROBINETIN]
0.0
CC(=O)OCC(=O)[C@@]1(O)CC[C@H]2[C@@H]3CCC4=CC(=O)[C@H](C)C[C@]4(C)[C@H]3[C@@H](O)C[C@@]21C
0.0
COc1c2ccsc2c(OC)c2ccsc12
0.0

For COC(=O)C(Cc1c[nH]c2ccccc12)NC1=Nc2ccncc2S(=O)(=O)N1c1ccccc1 (stereo not given) , what call appears in the results of this test? 0.0

What did this assay record as the result for CCCCCC(=O)c1ccc2[nH]c3c(C)cc([N+](=O)[O-])c(C)c3c2c1 ? 0.0

# outcome recorded in this test, key = N=C(N)NS(=O)(=O)c1ccc(NNc2c3ccccc3nc3c(C(=O)Nc4ccc(S(N)(=O)=O)cc4)cccc23)cc1 0.0

What did this assay record as the result for CSc1nc(C)c(CCOC(C)=O)c(Cl)n1 ? 0.0

Which outcome was assigned to Cc1ccc(C(=O)/C=C2/Nc3ccccc3NC2=O)c(C)c1 in this test? 0.0

Record request — test call for O=NN1CCCS1(=O)=O 0.0

Test call for this molecule, please: Nc1ccc(Oc2ccc(C3(c4ccc(Oc5ccc(N)cc5)cc4)C4CC5CC(C4)CC3C5)cc2)cc1 1.0

----------
system: SF-295; assay: NCI tumour cell line growth inhibition, 48 h
Active and inactive are the calls of the source. No stated cut-off is given here; in the data, active = GI50 up to about 1.1 µM and inactive = higher.
Classes to choose from: active, inactive

Below are worked cases with known answers.
N#Cc1c(-c2ccccc2)[nH]c2ccc(Cl)cc2c1=O
inactive
CN1CCN(Cc2ccc(C(=S)Nc3ccccc3)s2)CC1
inactive
CCCC(O)[C@@]1(CC)CC(C)C(O)(C2(C)C[C@H](C)[C@@H](C(CC)C(=O)C(C)[C@@H](O)[C@H](C)C3OC(O)(C(CC)C(=O)O)[C@@H](C)C(O)C3CC)O2)O1 (stereo not given in full)
active
COc1ccc2c(c1)CCCC(Br)C2=O (stereo not given)
inactive
C=C1C(=O)O[C@H]2C[C@@]3(COC(C)=O)C=COC=C(COC(=O)C(C)C)C3CC12 (stereo not given in full)
inactive
O=[N+]([O-])c1ccc(C(O)(C#CCN2CCCC2)c2ccccc2)cc1 (stereo not given)
inactive

Could you kindly confirm the outcome this assay logged for CCCCC#COP(=O)(OCC)OCC ? inactive

Could you kindly confirm the outcome this assay logged for O=c1c2ccc(Br)cc2nc(-c2ccccc2)n1NC1OC(CO)C(O)C(O)C1O (stereo not given) ? inactive

Outcome logged for O=C(Nc1nncs1)NS(=O)(=O)n1cnc2ccccc21 in this assay: inactive

Called result for CC(C)(CNC(=O)/C(Cl)=C(/Cl)C(=O)O)CNC(=O)/C(Cl)=C(/Cl)C(=O)O inactive

Just for reference, ChEMBL document CHEMBL1201862 is where these values come from.
